- assayOverview: Phase I clinical trial: pharmacokinetics after single and multiple oral administrations
- Assay type: in vivo, human
- runConditions: human, plasma, oral, 125 mg, Single administration; Median (min-max)
measurementKind: Tmax (h)

- compound: "[2H]C([2H])([2H])n1nc2c(c1C#N)-c1cnc(N)c(c1)O[C@H](C)c1cc(F)ccc1C(=O)N(C)C2 [compound A]"
  unitAbbrev: "h"
  quantitativeResult: 1.02

====

- assayOverview: Phase I clinical trial: pharmacokinetics after single and multiple oral administrations
- Format: in vivo, human
- runConditions: human, plasma, oral, 100 mg, Single administration; Median (min-max)
measurementKind: Tmax (h)

- smilesStructure: "[2H]C([2H])([2H])n1nc2c(c1C#N)-c1cnc(N)c(c1)O[C@H](C)c1cc(F)ccc1C(=O)N(C)C2"
  quantitativeResult: 1.02

====

- assayOverview: Phase I clinical trial: pharmacokinetics after single and multiple oral administrations
- Format: in vivo, human
- runConditions: human, plasma, oral, 100 mg, Single administration; 100 mg; GM (%CV); read-out: Cmax
- From the text: The PK parameters for single-dose administration mainly include peak concentration (Cmax), time to peak concentration (Tmax), half-life (T1/2), systemic clearance (CL), volume of distribution (Vd), AUC0-t, and AUC0-∞. […]

- smilesStructure: "[2H]C([2H])([2H])n1nc2c(c1C#N)-c1cnc(N)c(c1)O[C@H](C)c1cc(F)ccc1C(=O)N(C)C2"
  Cmax, ng/mL: 774

====

- assayOverview: Phase I clinical trial: pharmacokinetics after single and multiple oral administrations
- Assay type: in vivo, human
- runConditions: human, plasma, oral, 80 mg, Multiple administrations; 80 mg; GM (%CV); read-out: Cmax, SS

- smilesStructure: "[2H]C([2H])([2H])n1nc2c(c1C#N)-c1cnc(N)c(c1)O[C@H](C)c1cc(F)ccc1C(=O)N(C)C2"
  Cmax / ng/mL: 589

====

- assayOverview: Phase I clinical trial: pharmacokinetics after single and multiple oral administrations
- Type: in vivo, human
- runConditions: human, plasma, oral; Single administration; 100 mg; GM (%CV)

- smilesStructure: "[2H]C([2H])([2H])n1nc2c(c1C#N)-c1cnc(N)c(c1)O[C@H](C)c1cc(F)ccc1C(=O)N(C)C2"
  AUC(0-inf) [ng·h/mL]: 14600

====

- assayOverview: Phase I clinical trial: pharmacokinetics after single and multiple oral administrations
- Type: in vivo, human
- runConditions: human, plasma, oral; Single administration; 125 mg; GM (%CV)
measurementKind: AUC(0-t) (ng·h/mL)

- smilesStructure: "[2H]C([2H])([2H])n1nc2c(c1C#N)-c1cnc(N)c(c1)O[C@H](C)c1cc(F)ccc1C(=O)N(C)C2"
  unitAbbrev: "ng·h/mL"
  quantitativeResult: 17800

====

- assayOverview: Phase I clinical trial: pharmacokinetics after single and multiple oral administrations
- Assay type: in vivo, human
- runConditions: human, plasma, oral, 80 mg, Multiple administrations; Median (min-max)

- smilesStructure: "[2H]C([2H])([2H])n1nc2c(c1C#N)-c1cnc(N)c(c1)O[C@H](C)c1cc(F)ccc1C(=O)N(C)C2"
  unitAbbrev: "h"
  Tmax: 1.56

====

- assayOverview: Phase I clinical trial: pharmacokinetics after single and multiple oral administrations
- Assay type: in vivo, human
- runConditions: human, plasma, oral; Multiple administrations; 125 mg; GM (%CV); read-out: AUC0-τ

- smilesStructure: "[2H]C([2H])([2H])n1nc2c(c1C#N)-c1cnc(N)c(c1)O[C@H](C)c1cc(F)ccc1C(=O)N(C)C2"
  AUC, ng·h/mL: 7700
